PROCEDURE SUMMARY: Ratio between Antiischemic potency to Vasorelaxant potency
Format: functional
READOUT LABEL: Ratio

[[record]]
molecule = "CC(C)(C)c1ccc(C#N)cc1NC(=O)Nc1ccc(Cl)nc1"
readout_label = "Ratio"
observed_measurement = 12

[[record]]
molecule = "CC(C)(C)c1ccc(C#N)cc1NC(=O)Nc1ccccc1"
readout_label = "Ratio"
observed_measurement = 19.9

[[record]]
molecule = "CC1(C)Oc2ccc(C#N)cc2[C@@H](/N=C(\\NC#N)Nc2ccccc2)[C@@H]1O"
readout_label = "Ratio"
observed_measurement = 7.9

[[record]]
molecule = "CC(C)(C)c1ccc(C#N)cc1NC(=O)Nc1cccnc1"
readout_label = "Ratio"
observed_measurement = 1.2

[[record]]
molecule = "CC1(C)CC(NC(=O)Nc2ccccc2)c2cc(C#N)ccc21 (stereo not drawn)"
readout_label = "Ratio"
observed_measurement = 7.2

[[record]]
molecule = "CC(C)(C)c1ccc(C#N)cc1NC(=O)Nc1cnccn1"
readout_label = "Ratio"
observed_measurement = 0.77

[[record]]
molecule = "CC1(C)CN(C(=O)Nc2cccnc2)c2cc(C#N)ccc21"
readout_label = "Ratio"
observed_measurement = 18.8

[[record]]
molecule = "CC1(C)CCN(C(=O)Nc2ccccc2)c2cc(C#N)ccc21"
readout_label = "Ratio"
observed_measurement = 3.9

